Assay: AUC (0 to t) in BALB/c mouse at 5 mg/kg, iv
Type: ADME, organism-based
Conditions: in vivo
reported_metric: AUC(0-t)

# compound_smiles, reported_metric, assay_result
measured = [
    ("Nc1n[nH]c(=O)c2c1c(-c1ccc3c(c1)CCN3C(=O)Cc1cccc(OC(F)(F)F)c1)nn2CC1CC1", "AUC(0-t)", "6930 ng·h/mL"),
]

###

In this section, each of the compounds is paired with its reported Cmax.
Assay: Cmax in BALB/c mouse at 10 mg/kg, po
Format: ADME, organism-based
Conditions: in vivo

# compound_smiles, unit_abbreviation, Cmax
records = [
    ("CC1(Cn2cc(-c3ccc4c(c3)CCN4C(=O)Cc3cccc(OC(F)(F)F)c3)c3c(N)n[nH]c(=O)c32)COC1", "ng/mL", 2700),
    ("Nc1n[nH]c(=O)c2c1c(-c1ccc3c(c1)CCN3C(=O)Cc1cccc(OC(F)(F)F)c1)nn2CC1CC1", "ng/mL", 1090),
    ("Nc1n[nH]c(=O)c2c1c(-c1ccc3c(c1)CCN3C(=O)Cc1cccc(C(F)(F)F)c1)cn2CC1CC1", "ng/mL", 45.5),
]
